test: protein stability index of a GFP-peptide fusion (GPS, HEK-293T) (PSI 1-6); higher = more stable; settings: treatment: DMSO; c terminus: a fixed tail appended;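 further: 24-mer peptide tiles fused after GFP, lentivirally expressed, FACS-sorted into six equal bins by GFP/DsRed ratio, decoded by Illumina sequencing, PSI is the read-weighted mean bin number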
Output yes (1) for protein stability index not less than 3; output no (0) otherwise.

>  <Residues>
KSVLKSDEEHMEEAITSASFLEQI [FAM189A2]

>  <Cat>
yes (1)

$$$$
>  <Residues>
MFPGVLLPLLESCSVRPDASVSSH [TCF25]

>  <Cat>
no (0)

$$$$
>  <Residues>
IRDLDVVVVSVAGAFRKGKSFILD [ATL3]

>  <Cat>
no (0)

$$$$
>  <Residues>
ETRVWHRRDGKWQNVHFHRSGSPT [CAMK2D]

>  <Cat>
yes (1)

$$$$
>  <Residues>
SYLMLVTVMMWPLAVYHRLWDRAY [RETREG3]

>  <Cat>
yes (1)

$$$$
>  <Residues>
NLNREEKIIREIDFYREDEDEEEE [TRIM55]

>  <Cat>
yes (1)

$$$$
>  <Residues>
AVFAVSAVVHEYALAVCLSFFYPV [SOAT1]

>  <Cat>
yes (1)

$$$$

---

test: protein stability index of a GFP-peptide fusion (GPS, HEK-293T) (PSI 1-6); higher = more stable; conditions: treatment: MLN4924 1 uM, 8 h; c terminus: a fixed tail appended
Output satisfied for protein stability index not less than 3; output not satisfied otherwise.

>  <Residues>
IQDLCEMLGKYGSSLEFTELLTLV [CASP6]

>  <Cat>
not satisfied

$$$$
>  <Residues>
NLNREEKIIREIDFYREDEDEEEE [TRIM55]

>  <Cat>
satisfied

$$$$
>  <Residues>
HSLYRRTGASFQKAQQEFAAGVFS [SCAMP3]

>  <Cat>
not satisfied

$$$$
>  <Residues>
QLQCSPAELQAELLHSQARLAELE [FBF1]

>  <Cat>
satisfied

$$$$
>  <Residues>
KKPPEESTCFERPCFKWYTSPWSE [ADAMTSL2]

>  <Cat>
not satisfied

$$$$
>  <Residues>
VEQPKGTEVVRDAVRKLKFARHIK [GULP1]

>  <Cat>
satisfied

$$$$
>  <Residues>
LLCVNYFFYGETVTDYFFTLVQRE [CDS2]

>  <Cat>
satisfied

$$$$

---

test: protein stability index of a GFP-peptide fusion (GPS, HEK-293T) (PSI 1-6); higher = more stable; details: treatment: MLN4924 1 uM, 8 h; c terminus: a fixed tail appended

>  <Residues>
QQELETLPTTKMAQTNPTPGSLGP [CRYBA1]

>  <protein stability index>
5.09

$$$$
>  <Residues>
PRAGKEESGVSVSNSQPTNESHSI [SLC29A1]

>  <protein stability index>
5.26

$$$$
>  <Residues>
SDGSCKTAGEMVFVYENAKEGARN [BTBD10]

>  <protein stability index>
4.48

$$$$
>  <Residues>
ALEKLRSEMEEEKRQAVNKAVANM [ZMYND11]

>  <protein stability index>
4.34

$$$$
>  <Residues>
HRVLQRLEQRRQQASEREAPSIEQ [FCHSD1]

>  <protein stability index>
4.99

$$$$
>  <Residues>
RVPQTWSKRLYGVYDNEKKLQLQL [PLD5]

>  <protein stability index>
2.31

$$$$
>  <Residues>
THKKCKEEVVSTLDAVQVLSGVSQ [FCHO1]

>  <protein stability index>
3.64

$$$$
>  <Residues>
KLGLGIDEDEVAAEEPNAAVPDEI [HSP90AB1]

>  <protein stability index>
5.48

$$$$
>  <Residues>
QFRVIGPRHPIRALVGDEVELPCR [MOG]

>  <protein stability index>
3.64

$$$$
>  <Residues>
PILKVQYHPRDQNKVLVCPMKSAP [RBBP5]

>  <protein stability index>
3.13

$$$$
>  <Residues>
RTLSAFLCLGGLACLIVMFLPEKK [SLC22A15]

>  <protein stability index>
2.64

$$$$
>  <Residues>
RFGQTIQSFTLRGDHRSPASAQKF [NET1]

>  <protein stability index>
3.27

$$$$
>  <Residues>
YEENEGAGPYLLNGSYLELSSDRV [ADAMTSL2]

>  <protein stability index>
4.07

$$$$
>  <Residues>
AVPEDLADRLVRVHGDPAVWWVSQ [FUT8]

>  <protein stability index>
2.65

$$$$
>  <Residues>
NLESKSTIGVEFATRSIQVDGKTI [RAB11A]

>  <protein stability index>
4.27

$$$$
>  <Residues>
SHTLEERVVHWYFKLLDKNSSGDI [SMOC2]

>  <protein stability index>
2.03

$$$$
>  <Residues>
KPFVSVFRHLRLQYIISDLASARI [GMCL1]

>  <protein stability index>
2.78

$$$$
>  <Residues>
GNISGEFWLGNEALHSLTQAGDYS [TNXB]

>  <protein stability index>
3.36

$$$$
>  <Residues>
FSGSNEVDQMNRIVEVLGIPPAAM [DYRK1B]

>  <protein stability index>
3.23

$$$$
>  <Residues>
FTQSGPIVSRATGRCLEVEMSKDA [GALNT9]

>  <protein stability index>
3.34

$$$$
>  <Residues>
RPRRYVQPPEMIGPMRPEQFSDEV [GAGE1]

>  <protein stability index>
4.41

$$$$
>  <Residues>
EYQLFEELGKGAFSVVRRCMKIPT [CAMK2D]

>  <protein stability index>
2.2

$$$$
>  <Residues>
DSQEAQSPGHSSAGQEGEDTLRRR [TOR1AIP2]

>  <protein stability index>
5.45

$$$$
>  <Residues>
QEYFERHRWPPVWYLKEEDHYQRV [RHOBTB1]

>  <protein stability index>
3.08

$$$$
>  <Residues>
EFKQNIENVSVEMLLRKFAESKGT [FCHO1]

>  <protein stability index>
3.02

$$$$
>  <Residues>
PPTQLEVNLEEIPGEGLLISWAFT [C2CD2L]

>  <protein stability index>
3.01

$$$$
>  <Residues>
HHPEVPQRILRIMCRLEELGLAGR [HDAC6]

>  <protein stability index>
2.52

$$$$
>  <Residues>
TCECLEGFRLAEDGKRCRRKDVCK [MATN2]

>  <protein stability index>
4.83

$$$$
>  <Residues>
DEAGGGAEGDSWEEEGFGSSSPVK [WEE1]

>  <protein stability index>
5.35

$$$$
>  <Residues>
AVADSIPQVLADLGSFESPANSET [PCDHGA10]

>  <protein stability index>
5.35

$$$$
>  <Residues>
DEDLRRQMQDDEQKTRLLEDSVSR [PALM]

>  <protein stability index>
5.31

$$$$
>  <Residues>
KQTQCPADPLQLNKALSIILHLIC [FEM1C]

>  <protein stability index>
2.21

$$$$
>  <Residues>
IRTKLNYNPPKDDGSTYKIELEGI [GAN]

>  <protein stability index>
2.84

$$$$
>  <Residues>
AGGFSIRNQKGEQVFRLAFRSGAL [MYORG]

>  <protein stability index>
2.28

$$$$
>  <Residues>
GLVLLKHALGSPEKVKACQGQYET [TBC1D10A]

>  <protein stability index>
2.94

$$$$
>  <Residues>
SHEANKLQDMLDGFIKKFVLCPEC [EIF5]

>  <protein stability index>
2.65

$$$$
>  <Residues>
ANKYLVEDVLLLNFEEMRALLDSL [KLHL14]

>  <protein stability index>
2.37

$$$$
>  <Residues>
ASLTIPLVPETEDDRKLAALLKFH [YJU2B]

>  <protein stability index>
3.41

$$$$
>  <Residues>
RKSVPGPGNRTCTGTSKRYQLCRV [ADAMTSL2]

>  <protein stability index>
2.68

$$$$
>  <Residues>
WLDNPERWNKVKMVVSREEVELAY [SEPHS2]

>  <protein stability index>
2.46

$$$$
>  <Residues>
ATLTTTSATSKLIHPDEDISLEER [ZNF207]

>  <protein stability index>
5.35

$$$$
>  <Residues>
AWNSPFYNCGEESLQSCMHFQPNS [NANOGP8]

>  <protein stability index>
2.43

$$$$
>  <Residues>
EELPCTCPLCTSDRGSCVSTTEGI [RHOBTB3]

>  <protein stability index>
4.62

$$$$
>  <Residues>
LGYQAVPSGSSGSLSTSSSSSPPG [CEBPB]

>  <protein stability index>
4.85

$$$$
>  <Residues>
PQLSPGSGTPQAGTPSPSRSRDSN [RTN2]

>  <protein stability index>
5.27

$$$$
>  <Residues>
TERGLSRKHIIEGLKASLERLQLE [KCNAB2]

>  <protein stability index>
2.22

$$$$
>  <Residues>
TNAGFLQTESELQELSEVLELLSA [FAN1]

>  <protein stability index>
3.03

$$$$
>  <Residues>
NLSRGQTPLTEGSEDLDGHSDPEE [RETREG3]

>  <protein stability index>
5.67

$$$$
>  <Residues>
ALCLEVRPTYFEMKNEKLLSKASE [RNF180]

>  <protein stability index>
3.67

$$$$
>  <Residues>
HLFLLGYSDGADDTFAAYTREQLY [MCOLN1]

>  <protein stability index>
2.35

$$$$
>  <Residues>
QIITSLVFHLPFYSSNQLHHFFCD [OR10K2]

>  <protein stability index>
3.02

$$$$
>  <Residues>
RNLRTQQEIEDKMKGFSFKEDTLL [C8orf76]

>  <protein stability index>
4.16

$$$$
